// data source = PubChem BioAssay

target: Neurogenic locus notch homolog protein 2 (Homo sapiens) (UniProt Q04721); experiment: small molecules binding Notch2 protein – biochemical, small-molecule microarray, 635 nm fluorescence, stem cell growth factors, primary screen (AID 1073); conditions: higher = more signal
Sequence (Q04721 whole entry, looked up): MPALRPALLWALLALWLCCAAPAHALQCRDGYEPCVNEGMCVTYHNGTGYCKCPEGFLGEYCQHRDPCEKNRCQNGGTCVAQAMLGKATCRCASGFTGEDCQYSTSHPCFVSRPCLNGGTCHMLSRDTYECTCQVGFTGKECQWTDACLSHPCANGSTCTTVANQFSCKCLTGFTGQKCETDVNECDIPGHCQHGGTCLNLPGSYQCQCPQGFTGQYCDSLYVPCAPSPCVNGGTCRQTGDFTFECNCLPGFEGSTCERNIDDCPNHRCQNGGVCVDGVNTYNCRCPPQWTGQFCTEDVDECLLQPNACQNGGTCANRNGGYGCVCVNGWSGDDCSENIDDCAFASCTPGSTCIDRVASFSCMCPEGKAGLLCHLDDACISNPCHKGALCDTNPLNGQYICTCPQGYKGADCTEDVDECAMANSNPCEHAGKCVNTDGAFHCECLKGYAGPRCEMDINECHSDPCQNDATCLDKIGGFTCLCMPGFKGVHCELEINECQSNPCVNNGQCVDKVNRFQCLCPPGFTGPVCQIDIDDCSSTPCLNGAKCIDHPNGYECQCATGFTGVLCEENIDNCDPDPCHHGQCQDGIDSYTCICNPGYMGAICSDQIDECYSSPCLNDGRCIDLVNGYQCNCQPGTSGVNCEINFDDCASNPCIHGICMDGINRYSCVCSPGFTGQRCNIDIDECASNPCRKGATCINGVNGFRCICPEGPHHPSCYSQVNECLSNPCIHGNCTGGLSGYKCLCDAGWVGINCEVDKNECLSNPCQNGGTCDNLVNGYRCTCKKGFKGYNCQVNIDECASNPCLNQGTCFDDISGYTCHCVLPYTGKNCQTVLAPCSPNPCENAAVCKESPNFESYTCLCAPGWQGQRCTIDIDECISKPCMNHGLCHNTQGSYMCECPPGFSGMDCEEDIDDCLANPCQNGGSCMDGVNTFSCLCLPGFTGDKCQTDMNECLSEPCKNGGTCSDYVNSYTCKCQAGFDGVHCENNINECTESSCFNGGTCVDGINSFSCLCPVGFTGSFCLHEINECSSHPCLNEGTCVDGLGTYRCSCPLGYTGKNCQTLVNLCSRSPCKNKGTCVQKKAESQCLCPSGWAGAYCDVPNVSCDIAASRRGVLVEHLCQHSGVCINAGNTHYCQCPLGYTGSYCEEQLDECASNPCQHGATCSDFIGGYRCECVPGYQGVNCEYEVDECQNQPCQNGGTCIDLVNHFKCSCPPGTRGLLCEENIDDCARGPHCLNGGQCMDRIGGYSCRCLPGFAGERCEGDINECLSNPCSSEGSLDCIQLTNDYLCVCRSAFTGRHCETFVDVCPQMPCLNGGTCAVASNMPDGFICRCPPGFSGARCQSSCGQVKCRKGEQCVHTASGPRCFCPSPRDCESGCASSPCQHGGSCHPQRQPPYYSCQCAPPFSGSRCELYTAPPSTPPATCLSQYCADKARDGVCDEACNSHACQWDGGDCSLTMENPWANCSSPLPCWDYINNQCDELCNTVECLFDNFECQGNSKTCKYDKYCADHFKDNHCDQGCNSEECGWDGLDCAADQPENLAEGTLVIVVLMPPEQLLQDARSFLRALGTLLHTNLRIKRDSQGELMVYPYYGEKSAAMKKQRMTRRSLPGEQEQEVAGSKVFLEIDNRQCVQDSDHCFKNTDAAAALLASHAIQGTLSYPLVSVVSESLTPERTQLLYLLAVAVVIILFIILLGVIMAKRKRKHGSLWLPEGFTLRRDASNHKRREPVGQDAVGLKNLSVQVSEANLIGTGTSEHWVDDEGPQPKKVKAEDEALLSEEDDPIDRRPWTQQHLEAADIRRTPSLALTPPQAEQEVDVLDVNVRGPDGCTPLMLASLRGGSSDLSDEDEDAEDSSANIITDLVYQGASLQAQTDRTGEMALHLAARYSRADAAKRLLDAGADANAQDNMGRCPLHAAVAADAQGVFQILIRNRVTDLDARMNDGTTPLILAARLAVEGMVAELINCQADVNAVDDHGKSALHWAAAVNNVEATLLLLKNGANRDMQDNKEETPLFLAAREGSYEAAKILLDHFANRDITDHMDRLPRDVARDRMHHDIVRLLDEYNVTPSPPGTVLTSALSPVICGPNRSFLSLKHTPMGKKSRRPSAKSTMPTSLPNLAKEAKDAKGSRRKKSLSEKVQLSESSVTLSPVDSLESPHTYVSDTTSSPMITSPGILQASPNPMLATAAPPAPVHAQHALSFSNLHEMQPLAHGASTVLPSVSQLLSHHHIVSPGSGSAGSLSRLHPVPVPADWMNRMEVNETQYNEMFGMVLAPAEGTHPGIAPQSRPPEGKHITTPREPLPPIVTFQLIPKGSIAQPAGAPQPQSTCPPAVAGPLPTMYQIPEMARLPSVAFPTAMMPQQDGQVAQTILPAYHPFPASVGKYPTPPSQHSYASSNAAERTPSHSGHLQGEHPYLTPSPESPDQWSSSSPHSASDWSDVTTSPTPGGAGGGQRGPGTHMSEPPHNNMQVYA
Would you mind labelling by composite z-score? At or over 1 is Fulfilled, under is Not fulfilled.

| MOLECULE | LABEL VALUE |
| --- | --- |
| CCCCC(CC)C(O)C1C=CC2C(=O)N(c3ccccc3)C(=O)C2N1Nc1ccccc1F (centres undefined) | Fulfilled |

Problem: Given the entry CCCCCCc1nc(Cc2cc(OC)c(OC)c(OC)c2)cc2c1[Si](C(C)C)(C(C)C)OC2 , answer whether its composite z-score meets or surpasses 1.
Solution: Not fulfilled

Problem: Given the entry Cc1ccccc1C(O)C1C=CC2C(=O)NC(=O)C2N1Nc1ccccn1 (centres undefined) , answer whether its composite z-score meets or surpasses 1.
Solution: Not fulfilled

Problem: Given the entry CCOC(=O)C[C@H]1[C@H](OC(=O)c2ccc(C(=O)c3ccccc3)cc2)[C@@H](NC(=O)CC(C)C)c2cc(OCCCO)ccc2N1C(=O)c1ccccc1 , answer whether its composite z-score meets or surpasses 1.
Solution: Fulfilled

Problem: Given the entry COc1cc(C(O)C2C=CC3C(=O)N(C)C(=O)C3N2Nc2ccccc2)cc(OC)c1OC (centres undefined) , answer whether its composite z-score meets or surpasses 1.
Solution: Fulfilled

Problem: Given the entry C=CC[C@@H](OC(=O)Nc1ccc(SC)cc1)c1ccc(O)c(F)c1 , answer whether its composite z-score meets or surpasses 1.
Solution: Not fulfilled

Problem: Given the entry O=C(NCCN1CCOCC1)[C@@H]1c2ccccc2C(=O)N(C2Cc3ccccc3C2)[C@H]1c1ccc(CO)cc1 , answer whether its composite z-score meets or surpasses 1.
Solution: Not fulfilled

Problem: Given the entry COc1ccc([C@H]2OC[C@@H]3C[C@H](Cc4ccccc4)C(=O)N32)cc1 , answer whether its composite z-score meets or surpasses 1.
Solution: Not fulfilled

Problem: Given the entry COC(=O)C1(CC(C)C)C=C2C(=C(c3ccccc3)C(=O)C2C)CN1 (centres undefined) , answer whether its composite z-score meets or surpasses 1.
Solution: Fulfilled

* * *

For each of the compounds below, state its composite z-score.
tested on: Sonic hedgehog protein (Shh); assay: Sonic hedgehog microarray binding compounds – biochemical, small-molecule microarray, 635/667 nm fluorescence, primary screen (AID 1151); conditions: 635 nm fluorescence, higher = more signal;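 further: Shh protein binding to compounds spotted on small-molecule microarray slides; score combines spot fluorescence intensity with signal-to-noise across triplicate slides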
One number for each entry.

Previously resolved entries follow.
| COMPOUND | VALUE TYPE | REPORTED RESULT |
| --- | --- | --- |
| CCN(CC)c1ccc(N2CC=CC34O[C@@H]5/C=C\CCCOC(=O)C5[C@H]3C(=O)N(C(C)CO)[C@@H]4C2=O)cc1 (some centres undefined) | composite z-score | 1.19 |
| CC1CC/C=C\[C@H]2OC34C=CCN(c5ccc6ccccc6c5)C(=O)[C@H]3N(CCCO)C(=O)[C@@H]4C2C(=O)O1 (some centres undefined) | composite z-score | -0.749 |
| C=CCOC(=O)[C@@]1(Cc2ccccc2)C[C@H]2CO[C@H](c3ccc(OC)cc3)N2C1=O | composite z-score | 0.235 |
| CN(C)C(=O)[C@]1(CCC(=O)OC(C)(C)C)N=C(c2ccc(OCCCO)cc2)O[C@@H]1c1ccccc1CN=[N+]=[N-] | composite z-score | -0.646 |

Fill in composite z-score for each of the 7 compounds listed.
1. NC(=O)[C@H]1[C@@H]2C(=O)O[C@@H](c3ccccc3)[C@@H](c3ccccc3)N2[C@@H](c2ccc(OCCO)cc2)[C@]12C(=O)Nc1ccc(C#CCCO)cc12
2. COC(=O)C1=CC(CCCO)=CC(c2ccc(CN3CCCC3)cc2)N(Cc2cccc(OC(F)(F)F)c2)C=C1C(=O)OC (centres undefined)
3. NCCCCCNC(=O)[C@@H]1C[C@@H]2C(=O)N[C@@H](CCCCN)C(=O)N2[C@@H]1c1ccc(O)cc1
4. CCCCC=C[C@@H](NC(=O)OCc1ccccc1Cl)c1ccccc1
5. C=CCN1Cc2ccccc2[C@@H]2OC(c3ccc(OCCCO)cc3)=N[C@]2(CC=C)C1=O
6. O=C(c1ccccc1)N1C(=O)[C@]2(Cc3ccccc31)N=C(c1ccc(OCCCO)cc1)O[C@@H]2c1ccccc1
7. [N-]=[N+]=NCc1ccccc1C[C@@]1(C(N)=O)N=C(c2ccc(OCCCO)cc2)O[C@@H]1c1ccccc1

Solution:
1: 0.177; 2: -0.136; 3: 1.99; 4: 0.62; 5: 1.81; 6: 2.09; 7: -0.671
